tested on: CapD gamma-glutamyltranspeptidase (Bacillus anthracis Ames Ancestor); experiment: Bacillus anthracis CapD inhibitors, primary screen, biochemical, fluorescence intensity (AID 492967); settings: purified CapD enzyme, fluorescence intensity read-out; active compounds read low
Screen size: about 140,000 compounds; about 320 (0.23%) were called active. What follows is part of a selection rich in actives, with near analogues and random picks from the rest.
Recorded z-score, one value per entry.
Measure: z-score

# Molecule, System Under Test, Recorded Measurement
data = [
    ("COc1ccccc1N1CCN(c2ncnc3sc(C(=O)Nc4ccc5c(c4)OCCO5)c(C)c23)CC1", "CapD gamma-glutamyltranspeptidase (Bacillus anthracis Ames Ancestor)", -0.055),
    ("Cc1ccc2c(c1)-c1onc(C(=O)NC3CCCCC3)c1CO2", "CapD gamma-glutamyltranspeptidase (Bacillus anthracis Ames Ancestor)", 3.98),
    ("CCN(c1ccccc1)S(=O)(=O)c1cc2c(cc1C)n(C)c(=O)c(=O)n2C", "CapD gamma-glutamyltranspeptidase (Bacillus anthracis Ames Ancestor)", 4.49),
    ("COc1cccc(C(=O)c2cc3ccc(O)cc3oc2=O)c1", "CapD gamma-glutamyltranspeptidase (Bacillus anthracis Ames Ancestor)", -6.04),
    ("Oc1c(Br)cc(Br)cc1C=Nc1ccc(Oc2ccc(Cl)cc2)cc1", "CapD gamma-glutamyltranspeptidase (Bacillus anthracis Ames Ancestor)", -1.07),
    ("O=C1CSC(c2ccccc2)C(=O)N1c1ccc(Br)cc1 (configuration not stated)", "CapD gamma-glutamyltranspeptidase (Bacillus anthracis Ames Ancestor)", 0.345),
    ("CC1(C)OCC([C@H]2O[C@@H]3OC(C)(C)OC3C2OC(=O)Nc2ccc(Cc3ccc(NC(=O)OC4C5OC(C)(C)O[C@H]5O[C@@H]4C4COC(C)(C)O4)cc3)cc2)O1 (some centres not stated)", "CapD gamma-glutamyltranspeptidase (Bacillus anthracis Ames Ancestor)", -0.275),
    ("COc1ccc2oc(=O)c(C(=O)O)cc2c1", "CapD gamma-glutamyltranspeptidase (Bacillus anthracis Ames Ancestor)", 31.1),
    ("O=C(C1CCN(S(=O)(=O)c2ccc3[nH]c4c(c3c2)CCCCC4)CC1)N1CCCC1", "CapD gamma-glutamyltranspeptidase (Bacillus anthracis Ames Ancestor)", -0.165),
    ("COc1ccc(N2CCN(c3ncnc4sc(C(=O)NCc5ccccc5OC)c(C)c34)CC2)cc1", "CapD gamma-glutamyltranspeptidase (Bacillus anthracis Ames Ancestor)", -0.385),
    ("Cc1nc2ccccc2n1CC1CC1(Cl)Cl (configuration not stated)", "CapD gamma-glutamyltranspeptidase (Bacillus anthracis Ames Ancestor)", -0.66),
    ("Cc1ccccc1C(=O)N1CCc2c([nH]c3ccccc23)C1", "CapD gamma-glutamyltranspeptidase (Bacillus anthracis Ames Ancestor)", 0.37),
    ("CC(Oc1ccc(OC(C)C(=O)/C=C/N(C)C)cc1)C(=O)/C=C/N(C)C (configuration not stated)", "CapD gamma-glutamyltranspeptidase (Bacillus anthracis Ames Ancestor)", -1.18),
    ("O=C(O)CCCN1C(=O)/C(=C2\\SC(=S)N(CCCC(=O)O)C2=O)SC1=S", "CapD gamma-glutamyltranspeptidase (Bacillus anthracis Ames Ancestor)", 1.03),
    ("Cc1cc(=O)oc2c3c(ccc12)OCN(c1ccccc1Cl)C3", "CapD gamma-glutamyltranspeptidase (Bacillus anthracis Ames Ancestor)", 21.1),
    ("CCN1CCN(CCNC(=O)c2ccc(NC(=O)C3=CSCCO3)cc2)CC1", "CapD gamma-glutamyltranspeptidase (Bacillus anthracis Ames Ancestor)", -0.9),
    ("O=C1NC(=S)N/C1=C/c1cc(I)cc(I)c1O", "CapD gamma-glutamyltranspeptidase (Bacillus anthracis Ames Ancestor)", -0.725),
    ("CC(C)NC(=O)CN1CCN(S(=O)(=O)c2cc(Cl)ccc2Cl)CC1", "CapD gamma-glutamyltranspeptidase (Bacillus anthracis Ames Ancestor)", -0.36),
    ("CCN1C(=O)/C(=C2/Sc3ccccc3N2C2CCCCC2)SC1=S", "CapD gamma-glutamyltranspeptidase (Bacillus anthracis Ames Ancestor)", -0.02),
    ("CN(CC(=O)O)S(=O)(=O)c1ccc2oc3ccccc3c2c1", "CapD gamma-glutamyltranspeptidase (Bacillus anthracis Ames Ancestor)", 0.355),
    ("CCc1ccc(NC(=O)Cc2csc(C)n2)cc1", "CapD gamma-glutamyltranspeptidase (Bacillus anthracis Ames Ancestor)", -0.185),
    ("Cc1ccc2cc(C)c(C)cc2c1", "CapD gamma-glutamyltranspeptidase (Bacillus anthracis Ames Ancestor)", -0.345),
]

Just for reference, PubChem BioAssay AID492967 is where these values come from.
